Test system: PC-3 multi-cell spheroids, viability
Assay: Anticancer human tumor PC-3 cell line growth inhibition [IpAb];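 note: spheroids exposed to compounds for 7 days before readout; 100% = DMSO vehicle control wells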
Conditions: second compound 0.1 µM; first compound 0.000316 µM; stronger effect = lower value
Experimental: Combinatorial screen of targeted agents with ipatasertib and abemaciclib in multi-cell type tumor spheroids […] Compounds. […] If the clinical Cmax for an agent had not been determined, the highest concentration tested was 10 microM. NCI60 Cell Culture. […] The optimal seeding densities for each of the cell lines at each time point assessed were determined prior to performing the concentration response studies. […]
# Lookup of reported viability, T/C keyed by entry
Your answer is read as %, so omit the unit and give the number.

Examples with answers:
compound	viability, T/C [%]
CC(C)n1nc(-c2ccc3oc(N)nc3c2)c2c(N)ncnc21 + CC(C)NCC(C(=O)N1CCN(c2ncnc3c2C(C)CC3O)CC1)c1ccc(Cl)cc1	63
Cn1ncnc1[C@H]1c2n[nH]c(=O)c3cc(F)cc(c23)N[C@@H]1c1ccc(F)cc1 + CCN1CCN(Cc2ccc(Nc3ncc(F)c(-c4cc(F)c5nc(C)n(C(C)C)c5c4)n3)nc2)CC1	48.2
CC(C)n1nc(-c2ccc3oc(N)nc3c2)c2c(N)ncnc21 + CCN1CCN(Cc2ccc(Nc3ncc(F)c(-c4cc(F)c5nc(C)n(C(C)C)c5c4)n3)nc2)CC1	59.1

Could you now look at the following compound, please?
Q. API: value(readout= viability, T/C, system= PC-3 multi-cell spheroids, viability, query= Cn1ncnc1[C@H]1c2n[nH]c(=O)c3cc(F)cc(c23)N[C@@H]1c1ccc(F)cc1 + CC(C)NCC(C(=O)N1CCN(c2ncnc3c2C(C)CC3O)CC1)c1ccc(Cl)cc1 )
A. 78.5
